Species: Rattus norvegicus
Assay: Inhibition of the rat conditioned avoidance response, CAR (Tranquilizing activity, peroral)
Format: functional
Details: po
Please respond with 1 when measured ED50 is strictly beneath 20 mg/kg, and with -1 in all other cases.

These recorded examples may help you get a feel for the data.
1) COc1cccc(N2CCN(CCCCN3C(=O)CC(C)(C)CC3=O)CC2)n1 = 1
2) O=C1SC2(CCCC2)C(=O)N1CCCCN1CCN(c2ncccc2Cl)CC1 = -1
3) N#Cc1cccnc1N1CCN(CCCCN2C(=O)SC3(CCCC3)C2=O)CC1 = -1
4) N#Cc1cccnc1N1CCN(CCCCN2C(=O)CSC2=O)CC1 = 1

# input for lookup
Q: Decide: ED50 of Cc1cccnc1N1CCN(CCCCN2C(=O)CC(C)(C)CC2=O)CC1 strictly below 20 mg/kg?
A: -1
